Reference source for all entries: patent US20160368965A1

Recorded peptide exchange yield values for a group of binders are listed next.
- Experimental target: T1, HLA-A*02:01 (human)
- T1 construct: the tested peptide takes its place; also called peptide-receptive MHC molecules; MHC class I
- Procedure text: UV-ligand exchange, anti-β2m ELISA; grade of peptide exchange yield
- Source text: Candidate peptides for T cell based therapies according to the present invention were further tested for their MHC binding capacity (affinity). The individual peptide-MHC complexes were produced by UV-ligand exchange, where a UV-sensitive peptide is cleaved upon UV-irradiation, and exchanged with the peptide of interest as analyzed. Only peptide candidates that can effectively bind and stabilize the peptide-receptive MHC molecules prevent dissociation of the MHC complexes. […]

Here are 6 binders together with their reported answers.
Binder	Assay metric	Obs value
ILDDVSLTHL [ILDDVSLTHL (SEQ ID NO: 133)]	peptide exchange yield	20 to 50%
GLGDFIFYSV [GLGDFIFYSV (SEQ ID NO: 86)]	peptide exchange yield	≥ 75%
TAVALLRLL [TAVALLRLL (SEQ ID NO: 144)]	peptide exchange yield	20 to 50%
FIDSSNPGL [FIDSSNPGL (SEQ ID NO: 13)]	peptide exchange yield	20 to 50%
ALDQKVRSV [ALDQKVRSV (SEQ ID NO: 98)]	peptide exchange yield	20 to 50%
ALPKEDPTAV [ALPKEDPTAV (SEQ ID NO: 153)]	peptide exchange yield	50 to 75%

-- ask Which peptide exchange yield is reported for this binder? AVAAVLTQV [AVAAVLTQV (SEQ ID NO: 103)]
-- reply 50 to 75%

-- ask Another binder to look at: ILSTEIFGV [ILSTEIFGV (SEQ ID NO: 22)]
-- reply 50 to 75%

-- ask Another binder to look at: ALDPAAQAFLL [ALDPAAQAFLL (SEQ ID NO: 4)]
-- reply 50 to 75%
